meta.source: ChEMBL document CHEMBL1143164

STUDY SYSTEM: Phosphatidylinositol 4,5-bisphosphate 3-kinase catalytic subunit alpha isoform (Homo sapiens)
Sequence (P42336 whole entry, canonical isoform): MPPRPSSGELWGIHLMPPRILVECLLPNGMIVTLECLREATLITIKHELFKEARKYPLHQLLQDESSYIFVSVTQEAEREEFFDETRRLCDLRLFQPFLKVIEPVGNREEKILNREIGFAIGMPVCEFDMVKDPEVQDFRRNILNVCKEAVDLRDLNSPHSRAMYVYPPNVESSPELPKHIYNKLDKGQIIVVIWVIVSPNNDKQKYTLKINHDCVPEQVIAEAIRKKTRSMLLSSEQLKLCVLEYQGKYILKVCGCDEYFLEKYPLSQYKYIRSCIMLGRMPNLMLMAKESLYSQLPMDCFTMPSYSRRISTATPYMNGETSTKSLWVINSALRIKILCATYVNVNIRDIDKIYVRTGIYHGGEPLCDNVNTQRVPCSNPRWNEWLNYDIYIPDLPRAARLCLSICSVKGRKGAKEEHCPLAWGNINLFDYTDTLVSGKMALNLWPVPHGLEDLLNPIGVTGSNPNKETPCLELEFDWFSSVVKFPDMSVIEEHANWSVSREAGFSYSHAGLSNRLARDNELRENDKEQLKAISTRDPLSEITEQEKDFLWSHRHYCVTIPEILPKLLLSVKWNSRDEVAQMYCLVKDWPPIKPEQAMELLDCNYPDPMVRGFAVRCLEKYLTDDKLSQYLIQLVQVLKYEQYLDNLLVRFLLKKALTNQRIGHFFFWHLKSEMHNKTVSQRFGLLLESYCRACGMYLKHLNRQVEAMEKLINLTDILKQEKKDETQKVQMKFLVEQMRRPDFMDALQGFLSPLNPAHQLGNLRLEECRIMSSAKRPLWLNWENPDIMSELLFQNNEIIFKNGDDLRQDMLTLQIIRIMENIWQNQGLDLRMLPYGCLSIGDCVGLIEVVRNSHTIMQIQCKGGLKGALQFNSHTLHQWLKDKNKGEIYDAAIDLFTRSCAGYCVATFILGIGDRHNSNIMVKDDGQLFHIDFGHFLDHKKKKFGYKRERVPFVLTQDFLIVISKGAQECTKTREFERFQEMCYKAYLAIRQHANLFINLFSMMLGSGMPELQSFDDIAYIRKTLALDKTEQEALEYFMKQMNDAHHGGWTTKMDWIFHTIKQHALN
TEST DETAILS: Inhibition of PI3K expressed in Escherichia coli by microtiter plate-based fluorescence polarization assay
IC50 values for the compounds below.
VALUE KIND: IC50 (nM)

1. CCN(/C=C1/C(=O)O[C@H](COC)[C@@]2(C)C1=C(O)C(=O)C1=C2[C@H](OC(C)=O)C[C@]2(C)[C@@H](O)CC[C@@H]12)CCN(C)C    5
2. COC[C@H]1OC(=O)/C(=C/N(C)C(C)(C)C)C2=C(O)C(=O)C3=C([C@H](OC(C)=O)C[C@]4(C)[C@@H](O)CC[C@@H]34)[C@]21C    440
3. CCN(/C=C1/C(=O)O[C@H](COC)[C@@]2(C)C1=C(O)C(=O)C1=C2[C@H](OC(C)=O)C[C@]2(C)[C@@H](O)CC[C@@H]12)CC    382
4. CCN(/C=C1/C(=O)O[C@H](COC)[C@@]2(C)C1=C(O)C(=O)C1=C2[C@H](OC(C)=O)C[C@]2(C)[C@@H](O)CC[C@@H]12)CCCN(C)C    12
